- target.desc: Shh-N in conditioned medium (human, UniProt Q15465 24-197, N-terminal palmitoyl modification; lacks the C-terminal cholesterol moiety)
- assay.overview: cell-based or functional assay
IC50, inhibition of osteoblast differentiation (alkaline phosphatase) of C3H10T1/2 cells for assorted binders
Field format: number, assumed nM, no unit text.

Illustrative cases are given below, each with its answer.
**Query** Item 1A5 (antibody, V domains shown, fully human XenoMouse hybridoma antibody; tested as hybridoma supernatant and as purified antibody; also called MAb 1A5) VH: EVQVVESGGDLIQPGGSLRLSCVASGFTVSSNYMNWVRQAPGKGLEWVSVIYSGGNTYYADSVKGRFTISRDNSKNTLYLQMNSLRAEDTAVYYCARDSSVVVGLGYFDLWGRGTLVTVSS VL: SYELTQPPSVSVSPGQTASITCSGDKLGANYASWYQQKPGQSPVLVIFQDTKRPSGIPERFSGSNSGNTATLTISGTQAMDEADYYCQAWDFSTVIFGGGTKLTVL has what recorded IC50, inhibition of osteoblast differentiation (alkaline phosphatase) of C3H10T1/2 cells?
**Result** 4.8

**Query** Moving on to 3H8OP (antibody, V domains shown) VH: QVQLVESGGGVVQPGRSLRLSCAASGFTFSTYGMHWVRQAPGKGLEWVAVIWYDGSNKYYADSVKGRFTISRDNSKNTLYLQMNSLRAEDTAVYYCARDLYYYGSGSPFDYWGQGTLVTVSS VL: EIVMTQSPATLSVSPGERATLSCRASQSVSSNLAWYQQKPGQAPRLLIYGVSIRATGIPARFSGSGSGTEFTLTISSLQSEDFAVYYCQQYNNWPRPGFGGGTKVEIK
**Result** 5.6

**Query** Moving on to 1G1 (antibody, V domains shown, fully human XenoMouse hybridoma antibody; also called MAb 1G1) VH: EVQLVESGGGLVKPGGSLRLSCAASGFTFSSYSMNWVRQAPGKGLEWVSSFSSSSSYIYYADSVKGRFTISRDNAKNSLYLQMNSLRAEDTAVYYCARDRGDYVDYYYGMDVWGQGTTVTVSS VL: SYELTQPPSVSVSPGQTASITCSGDKLDYKYICWYQQKPGQSPVLVIYQDIKRPSGIPERFSGSNSGNTATLTISGTQAMDEADYYCQAWDSNTPLVFGGGTKLTVL
**Result** 5.7

**Query** Moving on to 3H8 (antibody, V domains shown, fully human XenoMouse hybridoma antibody; also called MAb 3H8) VH: QVQLVESGGGVVQPGRSLRLSCAASGFTFSTYGMHWVRQAPGKGLEWVAVIWYDGSNKYYADSVKGRFTISRDNSKNTLNLQMNSLRAEDTAVYYCARDLYYYGSGSPFDYWGQGTLVTVSS VL: EIVMTQSPATLSVSPGERATLSCRASQSVSSNLAWYQQKPGQAPRLLIFGVSIRATGIPARFSGSGSGTEFTLTISSLQSEDFAVYYCQQYNNWPRPGFGGGTKVEIK
**Result** 3.4

**Query** Moving on to 6D7 (antibody, V domains shown, fully human XenoMouse hybridoma antibody; also called MAb 6D7) VH: QVQLQESGPGLVKPSQTLSLTCTVSGGSINSGGFYWSWIRQHPGKNLEWIGSIYYSGNTYYNPSLKSRVTISVDTSKNQFSLKLTSVTAADTAVYYCARGNDSGDYDWYFDLWGRGTLVTVSS VL: SYELTQPPSVSVSPGQTASITCSGEKLGYKYVCWYQQKPGQSPVLVIFHDNKRPSGIPERFSGSNSGNTATLTISGAQAMDEADYYCQAGDSSAVFGGGTKLTVL
**Result** 5.3

**Query** Moving on to 1H10 (antibody, V domains shown, fully human XenoMouse hybridoma antibody; tested as hybridoma supernatant and as purified antibody; also called MAb 1H10) VH: QVQLVESGGGVVQPGRSLRLSCAASGFTFSSYGMHWVRQAPGKGLEWVAVIWNDGSNEYYADSVKGRFTISRDNSKNTLYLQMNSLRAEDTAVYYCARDLYYYGSGSPFDDWGQGTLVTVSS VL: EIVMTQSPGTLSVSPGERATLSCRASQSVGSNLAWYQQKPGQAPRLLIFGVSIRATGVPARFSGSGSGTEFTLTISSLQSEDFAVYYCQQYNDWPRPGFGGGTKVEIK
**Result** 4.4

**Query** Moving on to 4B6 (antibody, V domains shown, fully human XenoMouse hybridoma antibody; tested as hybridoma supernatant and as purified antibody; also called MAb 4B6) VH: QVQLVESGGGVVQPGRSLRLSCAASGFTFSTYGMHWVRQAPGKGLEWVAVIWYDGSNEYYADSVKGRFTISRDNSKNTLYLQMNSLRAEDTAVYYCARDLYYYGSGSPFDYWGQGTLVTVSS VL: EIVMTQSPATLSVSPGERATLSCRASQSVSSNLAWYQQKPGQAPRLLIFGISIRATGIPARFSGSGSGTEFTLTISSLQSEDFAVYYCQQYNDWPRPGFGGGTRVEIK
**Result** 3.3

**Query** Moving on to 1A12 (antibody, V domains shown, fully human XenoMouse hybridoma antibody; tested as hybridoma supernatant and as purified antibody; also called MAb 1A12) VH: QVYLVESGGGVVQPGRSLRLSCAASGFTFSSYGMHWVRQAPGKGLEWVAVIWYDGSNEYYADSVKGRFTISRDNSKNTLYLQMNSLRAEDTAVYYCARDLYYYGSGSPFDYWGQGTLVTVSS VL: EIVMTQSPATLSVSPGERATLSCRASQSVSSNLAWYQQKPGQAPRLLIFGVSIRATGIPARFSGSGSGTEFTLTISSLQSEDFAVYYCQQYNDWPRPGFGGGTKVEIK
**Result** 4.6

Next binder, IC50, inhibition of osteoblast differentiation (alkaline phosphatase) of C3H10T1/2 cells to be filled in.
**Query** Item 1G12 (antibody, V domains shown, fully human XenoMouse hybridoma antibody; tested as hybridoma supernatant and as purified antibody; also called MAb 1G12) VH: QVQLVESGGGVVQPGRSLRLSCAASGFTFSTYGMHWVRQAPGKGLEWVAVIWYDGSNKYYADSVNGRFTISRDNSKNTLYLQMNSLRGEDTAVYYCARDLYYYGSGSPFDYWGQGTLVTVSS VL: EIVMTQSPATLSVSPGERVTLSCRASQSVSSNLAWYQQKPGQAPRLLIYGVSIRATGIPARFSGSGSGTEFTLTISSLQSEDFAVYYCQQYDNWPRPGFGGGTKVEIK has what recorded IC50, inhibition of osteoblast differentiation (alkaline phosphatase) of C3H10T1/2 cells?
**Result** 7.1

All values here come from patent US20120328625A1.
